test: A549 cell viability effects, profiling panel, calcein-AM fluorescence, 48 h, basal (AID 1162); settings: higher = more signal; further: test concentration not given here
MEASURED_ATTRIBUTE: z-score
Would you mind answering with just the numeric figure?

Solved entries:
CC(C)=CCCC(C)=CCON=C1C[C@@H](O)[C@@H](O)[C@@H]2[C@@H]3C(=O)N([C@@H](C)c4ccccc4)C(=O)[C@@H]3CC[C@H]12	0.0319
CO[C@H]1COC(=O)[C@H](C)NC(=O)CC=C[C@@H](C)[C@H](OC)COC(=O)CC=C[C@@H]1C	1.51

Can you share its z-score? I mean this molecule: CC(C)CCN1CCc2nc(-c3ccccc3)c3c(c2C1)CO[C@@H](C)C3
-0.0742

---

Listing of entries alongside the reported composite z-score.
biological target: Dihydroorotate dehydrogenase (quinone), mitochondrial (Plasmodium falciparum (isolate 3D7)); test: PfDHODH enzyme inhibitors, primary screen, biochemical, C-terminal His tag, absorbance 600 nm (AID 1175); conditions: DCIP absorbance 600 nm, higher = more signal, called active from +8 up or from −8 down;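 further: recombinant parasite enzyme with a five histidine tag at its C terminus; test concentration not given here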
Would you mind answering with just the numeric figure?

Solved entries:
CCOC(=O)NN=C1C[C@@H](O)[C@@H](O)[C@@H]2[C@@H]3C(=O)N(Cc4ccccc4)C(=O)[C@@H]3CC[C@@H]12	0.0897
CCCNC(=O)OC[C@H]1O[C@H](CCON=C(C)CCN2CCc3nc(-c4ccccc4)c(-c4ccccc4)cc3C2)C=C[C@@H]1Oc1ccc(OC)cc1	0.672
CO[C@@H]1C=CCC(=O)N2CCC[C@H]2C(=O)OC[C@H](C)C(=O)OC[C@H]1C	0.634

Field: next compound
Can you share its composite z-score? I mean this compound: CCN1C(=O)[C@H]2[C@H]3[C@H](O)[C@H](O)CC(=NOC)[C@@H]3CC[C@H]2C1=O
-0.581

---

tested on: Wnt5a (protein binding on small-molecule microarray); test: Wnt5a binders on small-molecule microarray, primary screen, biophysical, 635/667 nm fluorescence (AID 1142); settings: 635 nm fluorescence, higher = more signal;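 further: fluorescence read at 667 nm with signal to noise per printed feature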
Listing of entries alongside the reported composite z-score.
Would you mind answering with just the numeric figure?

Cc1cc2c(nc1C)CCCN2CC(C)ON=C[C@@H](C)[C@H](OCc1ccccc1)C(C)C (some centres not stated)	-0.0264

Field: next compound
Can you share its composite z-score? I mean this compound: CCN1C(=O)[C@H]2[C@H]3[C@H](O)[C@H](O)CC(=NOC)[C@@H]3CC[C@H]2C1=O
-0.254

---

test system: Wnt5a (protein binding on small-molecule microarray); assay: Wnt5a binders on small-molecule microarray, primary screen, biophysical, 635/667 nm fluorescence (AID 1142); conditions: 635 nm fluorescence, higher = more signal;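 further: fluorescence read at 667 nm with signal to noise per printed feature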
Classes based on composite z-score: low band (below -0.09), middle band (-0.09 to below 0.1), high band (0.1 or more)

The following compounds have reported results that may help.
CO[C@H]1COC(=O)[C@H](C)NC(=O)CC=C[C@@H](C)[C@H](OC)COC(=O)CC=C[C@@H]1C	high band
CO[C@H]1COC(=O)CC=C[C@@H](C)COC(=O)[C@@H](OCc2ccccc2)C=C[C@@H]1C	low band
CC(C)=CCCC(C)=CCON=C1C[C@@H](O)[C@@H](O)[C@@H]2[C@@H]3C(=O)N([C@@H](C)c4ccccc4)C(=O)[C@@H]3CC[C@H]12	high band
CCOC(=O)CCN1C(=O)[C@H]2[C@H]3[C@H](O)[C@H](O)CC(=NNC(=O)OCC)[C@@H]3CC[C@H]2C1=O	high band
C[C@@H](ON=C1[C@H]2CCn3c(=O)n(-c4ccccc4)c(=O)n3[C@H]2[C@H](O)[C@@H]2O[C@H]12)c1cn([C@H](CO)Cc2ccccc2)nn1	low band

Exercise: read the entry CCOC(=O)NN=C1C[C@@H](O)[C@@H](O)[C@@H]2[C@@H]3C(=O)N(Cc4ccccc4)C(=O)[C@@H]3CC[C@@H]12 and state which class it falls under.
middle band

Exercise: read the entry CC(=O)OC[C@H]1O[C@H](C#CC(C)(C)C)C=C[C@@H]1OC(C)=O and state which class it falls under.
middle band

Exercise: read the entry CCOC(=O)[C@H](CC(C)C)NC(=O)CCC1CC(OC(=O)NCc2cccc3ccccc23)CC2(CCCC(COC(=O)NCc3ccccc3)O2)O1 (stereo not given in full) and state which class it falls under.
low band

Exercise: read the entry C[C@@H](c1ccccc1)N1C(=O)[C@H]2[C@H]3[C@H](O)[C@H](O)CC(=O)[C@@H]3CC[C@H]2C1=O and state which class it falls under.
high band
